molecular target: acetylcholinesterase from electric eel (AChE) (Electrophorus electricus, UniProt O42275); construct: purchased Sigma Chemicals (St. Louis, MO, USA); test: Acetylcholinesterase inhibitory assay (Ellman's microplate assay); type: biochemical; settings: read-out: AChE inhibition, IC50; chemical constituents; Mean ± SD (n = 3)
Sequence (O42275 24-633): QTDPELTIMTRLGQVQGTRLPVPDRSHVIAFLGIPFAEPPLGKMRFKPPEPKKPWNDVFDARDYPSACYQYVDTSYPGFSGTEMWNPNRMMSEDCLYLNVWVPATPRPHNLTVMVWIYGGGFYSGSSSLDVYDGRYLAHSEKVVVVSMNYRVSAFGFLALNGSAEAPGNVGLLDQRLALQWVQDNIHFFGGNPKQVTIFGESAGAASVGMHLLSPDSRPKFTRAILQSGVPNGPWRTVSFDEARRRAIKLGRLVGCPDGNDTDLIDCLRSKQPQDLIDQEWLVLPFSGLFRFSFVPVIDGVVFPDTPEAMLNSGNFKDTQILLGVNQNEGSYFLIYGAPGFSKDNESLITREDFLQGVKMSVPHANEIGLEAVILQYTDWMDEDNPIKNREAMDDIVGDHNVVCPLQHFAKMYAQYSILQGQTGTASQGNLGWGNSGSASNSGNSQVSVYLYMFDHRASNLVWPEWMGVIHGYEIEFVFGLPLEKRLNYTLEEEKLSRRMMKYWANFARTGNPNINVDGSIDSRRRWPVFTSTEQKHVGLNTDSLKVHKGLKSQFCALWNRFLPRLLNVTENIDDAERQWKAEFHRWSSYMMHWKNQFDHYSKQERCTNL

[
  {
    "compound": "COc1cc(/C=C/C(=O)O)cc(OC)c1OC [Compound 1]",
    "IC50, µM": 60.2
  }
]

----------
biological target: acetylcholinesterase from electric eel (AChE) (Electrophorus electricus, UniProt O42275); construct: purchased Sigma Chemicals (St. Louis, MO, USA); assay: Acetylcholinesterase inhibitory assay (Ellman's microplate assay); type: biochemical; settings: AChE inhibition, IC50, chemical constituents; Mean ± SD (n = 3)
quantityKind: IC50 (µM)

[
  {
    "molecule": "COc1cc(/C=C/C(=O)O)cc(OC)c1OC [Compound 1]",
    "resultNumber": 60.1
  }
]
